target or test system: CYP2C9 (Homo sapiens)
Sequence (P11712 whole entry): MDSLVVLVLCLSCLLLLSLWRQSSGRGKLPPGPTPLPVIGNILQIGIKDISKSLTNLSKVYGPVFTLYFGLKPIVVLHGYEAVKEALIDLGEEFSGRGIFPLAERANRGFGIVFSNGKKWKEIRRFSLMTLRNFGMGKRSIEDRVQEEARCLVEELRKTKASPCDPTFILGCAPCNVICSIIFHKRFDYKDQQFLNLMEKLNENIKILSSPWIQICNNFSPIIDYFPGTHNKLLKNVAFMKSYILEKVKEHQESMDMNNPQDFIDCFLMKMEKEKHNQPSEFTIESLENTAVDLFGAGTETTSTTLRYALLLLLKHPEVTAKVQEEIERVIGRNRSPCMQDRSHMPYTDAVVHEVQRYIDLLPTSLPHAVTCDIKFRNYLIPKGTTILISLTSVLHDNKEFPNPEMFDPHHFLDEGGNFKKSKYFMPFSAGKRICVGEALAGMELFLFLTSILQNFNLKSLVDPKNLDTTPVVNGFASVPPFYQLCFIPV
assay info: Inhibition of CYP2C9 in human liver microsomes using tolbutamide as substrate at 10 uM preincubated with compound for 5 mins followed by NADPH addition and measured after 20 mins by LC-MS/MS analysis relative to control
Type: ADME, Microsome
test settings: probe tolbutamide, time 25 min
recorded endpoint: inhibition at 20 min, 10 µM

{"cpd smiles": "CN(C)C1CCN(C(=O)c2cc3ccccc3n2CC2CCCCC2)CC1", "recorded result": "4.82%"}

====

Tested on: Ebolavirus
assay info: Antiviral activity against infectious EBOV 1976 Zaire Mayinga assessed as inhibition of viral growth
Assay type: functional, organism-based
test settings: Orthoebolavirus
pEC50: −log10 of the molar value.

{"cpd smiles": "CN(C)CCNC(=O)c1cc2occc2n1Cc1ccc(Cl)cc1", "pEC50": 5.28}
